# tested-target: nhr-142 (F44E7.8) (Caenorhabditis elegans) (UniProt J7SF93)
# Sequence: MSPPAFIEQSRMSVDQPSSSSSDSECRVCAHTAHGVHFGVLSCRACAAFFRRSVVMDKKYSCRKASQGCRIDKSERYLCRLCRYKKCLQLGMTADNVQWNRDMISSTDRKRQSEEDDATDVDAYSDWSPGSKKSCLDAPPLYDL
assay-metric: binding signal (PBM E-score (-0.5 to 0.5))
// no unit, no text: just the number

Sample records with binding signal (PBM E-score (-0.5 to 0.5)):
AGGTCACA (double strand) [8-mer AGGTCACA]    0.486
GTCATAAA (double strand) [8-mer GTCATAAA]    0.484
GTCACAAA (double strand) [8-mer GTCACAAA]    0.498

Data request: Look up binding signal (PBM E-score (-0.5 to 0.5)) with nhr-142 (F44E7.8) (Caenorhabditis elegans) (UniProt J7SF93) for this sequence: AGTCACAA (double strand) [8-mer AGTCACAA]
Data returned: 0.498

Data request: Look up binding signal (PBM E-score (-0.5 to 0.5)) with nhr-142 (F44E7.8) (Caenorhabditis elegans) (UniProt J7SF93) for this sequence: ATTGTGAC (double strand) [8-mer ATTGTGAC]
Data returned: 0.494

Data request: Look up binding signal (PBM E-score (-0.5 to 0.5)) with nhr-142 (F44E7.8) (Caenorhabditis elegans) (UniProt J7SF93) for this sequence: TGTCACAA (double strand) [8-mer TGTCACAA]
Data returned: 0.49

Data request: Look up binding signal (PBM E-score (-0.5 to 0.5)) with nhr-142 (F44E7.8) (Caenorhabditis elegans) (UniProt J7SF93) for this sequence: CAGTCACA (double strand) [8-mer CAGTCACA]
Data returned: 0.483

Data request: Look up binding signal (PBM E-score (-0.5 to 0.5)) with nhr-142 (F44E7.8) (Caenorhabditis elegans) (UniProt J7SF93) for this sequence: AGTCACAG (double strand) [8-mer AGTCACAG]
Data returned: 0.492

Data request: Look up binding signal (PBM E-score (-0.5 to 0.5)) with nhr-142 (F44E7.8) (Caenorhabditis elegans) (UniProt J7SF93) for this sequence: GGTCACAA (double strand) [8-mer GGTCACAA]
Data returned: 0.495

====

# tested-target: egrh-3 (Y94H6A.11) (Caenorhabditis elegans)
# Sequence: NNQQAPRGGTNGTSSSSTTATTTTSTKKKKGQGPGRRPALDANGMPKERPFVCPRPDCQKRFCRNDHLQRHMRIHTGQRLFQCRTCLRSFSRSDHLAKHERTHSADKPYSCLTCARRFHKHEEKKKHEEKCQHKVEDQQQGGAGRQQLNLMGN
assay-metric: binding signal (PBM E-score (-0.5 to 0.5))
// no unit, no text: just the number

Data request: Suppose we examine the sequence GGGGGGAA (double strand) [8-mer GGGGGGAA] ; what binding signal (PBM E-score (-0.5 to 0.5)) value has been reported?
Data returned: 0.493

Data request: Suppose we examine the sequence CCCCCCAC (double strand) [8-mer CCCCCCAC] ; what binding signal (PBM E-score (-0.5 to 0.5)) value has been reported?
Data returned: 0.495

Data request: Suppose we examine the sequence GGGGGGGA (double strand) [8-mer GGGGGGGA] ; what binding signal (PBM E-score (-0.5 to 0.5)) value has been reported?
Data returned: 0.499

Data request: Suppose we examine the sequence GGGGGAGA (double strand) [8-mer GGGGGAGA] ; what binding signal (PBM E-score (-0.5 to 0.5)) value has been reported?
Data returned: 0.493

Data request: Suppose we examine the sequence GCCCCCCC (double strand) [8-mer GCCCCCCC] ; what binding signal (PBM E-score (-0.5 to 0.5)) value has been reported?
Data returned: 0.496

Data request: Suppose we examine the sequence AGGGGGAG (double strand) [8-mer AGGGGGAG] ; what binding signal (PBM E-score (-0.5 to 0.5)) value has been reported?
Data returned: 0.493

Data request: Suppose we examine the sequence CCTCCCCC (double strand) [8-mer CCTCCCCC] ; what binding signal (PBM E-score (-0.5 to 0.5)) value has been reported?
Data returned: 0.496

Data request: Suppose we examine the sequence AGGGGGGG (double strand) [8-mer AGGGGGGG] ; what binding signal (PBM E-score (-0.5 to 0.5)) value has been reported?
Data returned: 0.498

Data request: Suppose we examine the sequence CCCCCCCA (double strand) [8-mer CCCCCCCA] ; what binding signal (PBM E-score (-0.5 to 0.5)) value has been reported?
Data returned: 0.496

====

This section presents sequences with their documented binding signal (PBM E-score (-0.5 to 0.5)) values.
# tested-target: ham-2 (C07A12.1) (Caenorhabditis elegans) (UniProt H2KYH4)
# Sequence: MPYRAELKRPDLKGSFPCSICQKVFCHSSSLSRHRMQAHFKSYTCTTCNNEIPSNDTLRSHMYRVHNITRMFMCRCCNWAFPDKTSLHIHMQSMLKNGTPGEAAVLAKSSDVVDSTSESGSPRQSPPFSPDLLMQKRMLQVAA
// no unit, no text: just the number

GCTTAAGC (double strand) [8-mer GCTTAAGC]    0.493
ATGCTAAT (double strand) [8-mer ATGCTAAT]    0.478
AAGCTTAC (double strand) [8-mer AAGCTTAC]    0.489

Now look at this one.
Data request: Suppose we examine the sequence AAAGCTTT (double strand) [8-mer AAAGCTTT] ; what binding signal (PBM E-score (-0.5 to 0.5)) value has been reported?
Data returned: 0.478

====

# tested-target: F55C5.11 (F55C5.11) (Caenorhabditis elegans) (UniProt Q1ZXU0)
# Sequence: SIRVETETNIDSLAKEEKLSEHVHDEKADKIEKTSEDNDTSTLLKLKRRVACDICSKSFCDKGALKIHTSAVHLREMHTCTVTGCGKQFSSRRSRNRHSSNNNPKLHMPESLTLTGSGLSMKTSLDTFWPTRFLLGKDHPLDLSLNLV
assay-metric: binding signal (PBM E-score (-0.5 to 0.5))
// no unit, no text: just the number

AGGTGACA (double strand) [8-mer AGGTGACA]    0.486

Data request: Suppose we examine the sequence GGTGACAA (double strand) [8-mer GGTGACAA] ; what binding signal (PBM E-score (-0.5 to 0.5)) value has been reported?
Data returned: 0.487

Data request: Suppose we examine the sequence CGGTGACA (double strand) [8-mer CGGTGACA] ; what binding signal (PBM E-score (-0.5 to 0.5)) value has been reported?
Data returned: 0.488

Data request: Suppose we examine the sequence ATGTGACA (double strand) [8-mer ATGTGACA] ; what binding signal (PBM E-score (-0.5 to 0.5)) value has been reported?
Data returned: 0.489

Data request: Suppose we examine the sequence GTGTCACA (double strand) [8-mer GTGTCACA] ; what binding signal (PBM E-score (-0.5 to 0.5)) value has been reported?
Data returned: 0.488

Data request: Suppose we examine the sequence GTGTGACA (double strand) [8-mer GTGTGACA] ; what binding signal (PBM E-score (-0.5 to 0.5)) value has been reported?
Data returned: 0.486

Data request: Suppose we examine the sequence TGTGACAA (double strand) [8-mer TGTGACAA] ; what binding signal (PBM E-score (-0.5 to 0.5)) value has been reported?
Data returned: 0.485

Data request: Suppose we examine the sequence GTGACAAA (double strand) [8-mer GTGACAAA] ; what binding signal (PBM E-score (-0.5 to 0.5)) value has been reported?
Data returned: 0.484

Data request: Suppose we examine the sequence TGGTGACA (double strand) [8-mer TGGTGACA] ; what binding signal (PBM E-score (-0.5 to 0.5)) value has been reported?
Data returned: 0.487

Data request: Suppose we examine the sequence GGGTGACA (double strand) [8-mer GGGTGACA] ; what binding signal (PBM E-score (-0.5 to 0.5)) value has been reported?
Data returned: 0.494

Data request: Suppose we examine the sequence GGTGACAC (double strand) [8-mer GGTGACAC] ; what binding signal (PBM E-score (-0.5 to 0.5)) value has been reported?
Data returned: 0.496

====

For ceh-37 (C37E2.5) (Caenorhabditis elegans) (UniProt Q93356), measured binding signal (PBM E-score (-0.5 to 0.5)) is reported for the entries below.
// no unit, no text: just the number

Sample records with binding signal (PBM E-score (-0.5 to 0.5)):
ATAATCCG (double strand) [8-mer ATAATCCG]    0.49
AGGATTAA (double strand) [8-mer AGGATTAA]    0.491
GCGGATTA (double strand) [8-mer GCGGATTA]    0.491

Now look at this one.
Data request: Suppose we examine the sequence GCTAATCC (double strand) [8-mer GCTAATCC] ; what binding signal (PBM E-score (-0.5 to 0.5)) value has been reported?
Data returned: 0.49
